Every entry's value here was drawn from patent US20090137549A1.

Target or system UniProt:P54750: recorded IC50 listed per item.
QUANTITY: IC50

COMPOUND: COC(=O)c1ccc(C(=O)N2CCCC(c3nc4c(c(C)nn4C4CCCCC4)c(=O)[nH]3)C2)cc1 (stereo not shown)
VALUE_OBSERVED: 101 to 500 nM

COMPOUND: CC(C)(C)NC(=O)N1CC(c2nc3c(cnn3C3CCCCC3)c(=O)[nH]2)C1
VALUE_OBSERVED: 1 to 100 nM

COMPOUND: N#C/N=C(/Nc1ccc(F)cc1)N1CC(c2nc3c(cnn3C3CCCCC3)c(=O)[nH]2)C1
VALUE_OBSERVED: 1 to 100 nM

COMPOUND: CCc1nn(C2CCCCC2)c2nc(C3CN(C(=O)Nc4ccccc4OC(F)F)C3)[nH]c(=O)c12
VALUE_OBSERVED: 501 to 1000 nM

COMPOUND: O=C(Nc1ccc(OC(F)(F)F)cc1)N1CC(c2nc3c(cnn3C3CCCCC3)c(=O)[nH]2)C1
VALUE_OBSERVED: 1 to 100 nM

COMPOUND: CC(C)N1CCN(c2ccc(OC(=O)N3CC(c4nc5c(cnn5C(C)(C)C)c(=O)[nH]4)C3)cc2)CC1
VALUE_OBSERVED: 1 to 100 nM

COMPOUND: CC(C)(C)n1ncc2c(=O)[nH]c(C3CN(c4nc5ccccc5[nH]4)C3)nc21
VALUE_OBSERVED: 1 to 100 nM

COMPOUND: Cc1nn(C2CCCCC2)c2nc(C3CN(C(=O)Cc4ccccc4)C3)[nH]c(=O)c12
VALUE_OBSERVED: 501 to 1000 nM

COMPOUND: O=c1[nH]c(C2CN(c3ncc(Br)s3)C2)nc2c1cnn2C1CCCCC1
VALUE_OBSERVED: 501 to 1000 nM

COMPOUND: CN(C)c1ccc(NC(=O)N2CC(c3nc4c(cnn4C4CCCCC4)c(=O)[nH]3)C2)cc1
VALUE_OBSERVED: 1 to 100 nM

COMPOUND: CC(C)N1CCN(Cc2csc(N3CC(c4nc5c(cnn5C5CCCCC5)c(=O)[nH]4)C3)n2)CC1
VALUE_OBSERVED: 1000 to 1500 nM

COMPOUND: O=C(c1cccc2c1OCO2)N1CCCC(c2nc3c(cnn3C3CCCCC3)c(=O)[nH]2)C1 (stereo not shown)
VALUE_OBSERVED: 101 to 500 nM

COMPOUND: Cc1nn(C2CCCCC2)c2nc(C3CCCN(C(=O)c4ccc(N(C)C)cc4)C3)[nH]c(=O)c12 (stereo not shown)
VALUE_OBSERVED: 101 to 500 nM

COMPOUND: Cc1nn(C2CCCCC2)c2nc(C3CCCN(C(=O)Oc4ccccc4)C3)[nH]c(=O)c12 (stereo not shown)
VALUE_OBSERVED: 501 to 1000 nM

COMPOUND: Cc1nn(C2CCCCC2)c2nc(C3CCCN(C(=O)c4cccc(NS(C)(=O)=O)c4)C3)[nH]c(=O)c12 (stereo not shown)
VALUE_OBSERVED: 101 to 500 nM

COMPOUND: Cc1nn(C2CCCCC2)c2nc(C3CCCN(C(=O)c4ccccc4Cl)C3)[nH]c(=O)c12 (stereo not shown)
VALUE_OBSERVED: 501 to 1000 nM

COMPOUND: O=C(OCC1CCCCC1)N1CC(c2nc3c(cnn3C3CCCCC3)c(=O)[nH]2)C1
VALUE_OBSERVED: 1 to 100 nM

COMPOUND: CN(C)c1ccc(C(=O)N2CCCC(c3nc4c(cnn4-c4ccccc4)c(=O)[nH]3)C2)cc1 (stereo not shown)
VALUE_OBSERVED: 101 to 500 nM

COMPOUND: N#Cc1ccc(NC(=O)N2CC(c3nc4c(cnn4C4CCCCC4)c(=O)[nH]3)C2)cc1
VALUE_OBSERVED: 1 to 100 nM

COMPOUND: COc1ccc(S(=O)(=O)N2CCCC(c3nc4c(c(C)nn4-c4ccccc4)c(=O)[nH]3)C2)cc1 (stereo not shown)
VALUE_OBSERVED: 101 to 500 nM

COMPOUND: O=c1[nH]c(C2CN(c3ncc(-c4ccccc4)s3)C2)nc2c1cnn2C1CCCCC1
VALUE_OBSERVED: 101 to 500 nM

COMPOUND: Cn1cncc1CNC(=O)N1CC(c2nc3c(cnn3C3CCCCC3)c(=O)[nH]2)C1
VALUE_OBSERVED: 101 to 500 nM

COMPOUND: O=C(NCc1ccc(F)cc1)N1CC(c2nc3c(cnn3C3CCCCC3)c(=O)[nH]2)C1
VALUE_OBSERVED: 1 to 100 nM

COMPOUND: COc1ccc(S(=O)(=O)N2CCCC(c3nc4c(c(C)nn4C4CCCCC4)c(=O)[nH]3)C2)cc1 (stereo not shown)
VALUE_OBSERVED: 101 to 500 nM

COMPOUND: O=C(Nc1ccc(N2CCOCC2)cc1)N1CC(c2nc3c(cnn3C3CCCCC3)c(=O)[nH]2)C1
VALUE_OBSERVED: 1 to 100 nM

COMPOUND: CC(=O)Nc1ccc(C(=O)N2CCCC(c3nc4c(c(C)nn4C4CCCCC4)c(=O)[nH]3)C2)cc1 (stereo not shown)
VALUE_OBSERVED: 1000 to 1500 nM

COMPOUND: O=c1[nH]c(C2CN(c3nc(-c4ccccc4)c(CN4CCOCC4)s3)C2)nc2c1cnn2C1CCCCC1
VALUE_OBSERVED: 1 to 100 nM

COMPOUND: COC(=O)c1cccc(C(=O)N2CCCC(c3nc4c(c(C)nn4C4CCCCC4)c(=O)[nH]3)C2)c1 (stereo not shown)
VALUE_OBSERVED: 101 to 500 nM

COMPOUND: CC(C)(C)n1ncc2c(=O)[nH]c(C3CN(C(=O)Oc4cccc(Cl)c4)C3)nc21
VALUE_OBSERVED: 1 to 100 nM

COMPOUND: O=C(Nc1ccc(C(F)(F)F)cc1)N1CC(c2nc3c(cnn3C3CCCCC3)c(=O)[nH]2)C1
VALUE_OBSERVED: 1 to 100 nM

COMPOUND: O=C(NC1CCCC1)N1CC(c2nc3c(cnn3C3CCCCC3)c(=O)[nH]2)C1
VALUE_OBSERVED: 1 to 100 nM
